The reader will find Ki measurements below, all made with Coagulation factor X (Homo sapiens, UniProt P00742).
Sequence (P00742 41-179 limits assumed): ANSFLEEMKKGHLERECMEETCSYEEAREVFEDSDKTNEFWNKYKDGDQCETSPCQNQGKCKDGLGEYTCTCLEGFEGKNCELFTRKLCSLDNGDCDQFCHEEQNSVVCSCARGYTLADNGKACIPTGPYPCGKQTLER
Sequence (P00742 235-488 limits assumed): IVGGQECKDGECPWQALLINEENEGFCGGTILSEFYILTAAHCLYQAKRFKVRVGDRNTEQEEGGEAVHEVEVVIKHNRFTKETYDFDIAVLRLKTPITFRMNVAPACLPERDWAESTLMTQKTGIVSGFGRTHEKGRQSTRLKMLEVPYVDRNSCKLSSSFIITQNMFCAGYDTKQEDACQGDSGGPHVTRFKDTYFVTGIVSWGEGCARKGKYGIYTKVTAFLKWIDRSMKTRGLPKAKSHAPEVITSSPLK
Assay readout: Ki (nM)

- Structure as smiles: "COC(=O)[C@H](Cc1cccc(C(=N)N)c1)[C@@H](C)NC(=O)c1ccc(-c2ccc[n+]([O-])c2)cc1"
  Observed result: 2

a = COC(=O)[C@H](Cc1cccc(C(=N)N)c1)[C@@H](C)NC(=O)c1ccc(-c2ccc[n+](C)c2)cc1
b = COC(=O)[C@H](Cc1cccc(C(=N)N)c1)[C@@H](C)NC(=O)c1ccc(-n2ccnc2)cc1
From the recorded data, which exceeds the other in Ki: a or b ? Write the label of whichever entry you select.
b
(b: 6 nM, a: 0.8 nM)

====

The reader will find pKi measurements below, all made with UniProt P00734.
pKi: −log10 of the molar value.

- Structure as smiles: "COC(=O)[C@H](Cc1cccc(C(=N)N)c1)[C@@H](C)NC(=O)c1ccc(-c2ncc[nH]2)cc1"
  Experimental system: "UniProt P00734"
  pKi: "< 5.40"
- Structure as smiles: "COC(=O)[C@H](Cc1cccc(C(=N)N)c1)[C@@H](C)NC(=O)c1ccc(-n2ccnc2)cc1"
  Experimental system: "UniProt P00734"
  pKi: "< 5.40"
- Structure as smiles: "COC(=O)[C@H](Cc1cccc(C(=N)N)c1)[C@@H](C)NC(=O)c1ccc(-c2ccccc2)cc1"
  Experimental system: "UniProt P00734"
  pKi: 5.49
- Structure as smiles: "COC(=O)[C@H](Cc1cccc(C(=N)N)c1)[C@@H](C)NC(=O)c1ccc(-c2cccnc2)cc1"
  Experimental system: "UniProt P00734"
  pKi: 5.40
- Structure as smiles: "COC(=O)[C@H](Cc1cccc(C(=N)N)c1)[C@@H](C)NC(=O)c1ccc(-c2ccc[n+](C)c2)cc1"
  Experimental system: "UniProt P00734"
  pKi: "< 5.40"
- Structure as smiles: "COC(=O)[C@H](Cc1cccc(C(=N)N)c1)[C@@H](C)NC(=O)c1ccc(-c2cc[n+]([O-])cc2)cc1"
  Experimental system: "UniProt P00734"
  pKi: "< 5.40"
- Structure as smiles: "COC(=O)[C@H](Cc1cccc(C(=N)N)c1)[C@@H](C)NC(=O)c1ccc(-c2cccc[n+]2C)cc1"
  Experimental system: "UniProt P00734"
  pKi: "< 5.40"
- Structure as smiles: "COC(=O)[C@H](Cc1cccc(C(=N)N)c1)[C@@H](C)NC(=O)c1ccc(-c2c[nH]cn2)cc1"
  Experimental system: "UniProt P00734"
  pKi: "< 5.40"

Next compound, pKi to be filled in.
What value of pKi has been recorded for this entry: COC(=O)[C@H](Cc1cccc(C(=N)N)c1)[C@@H](C)NC(=O)c1ccc(-c2ccncc2)cc1
< 5.40

====

# Experimental system: Serine protease 1 (Homo sapiens)
# Sequence (P07477 whole entry): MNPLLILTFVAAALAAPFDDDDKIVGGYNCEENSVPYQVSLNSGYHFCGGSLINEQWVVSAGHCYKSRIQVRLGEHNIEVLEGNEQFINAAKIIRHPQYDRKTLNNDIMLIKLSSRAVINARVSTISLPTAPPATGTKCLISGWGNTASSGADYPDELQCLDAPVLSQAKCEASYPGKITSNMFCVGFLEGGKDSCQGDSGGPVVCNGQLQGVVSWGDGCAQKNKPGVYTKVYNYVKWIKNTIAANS
Assay readout: Ki (nM)

Before answering, review these 3 worked examples.
- Structure as smiles: "COC(=O)[C@H](Cc1cccc(C(=N)N)c1)[C@@H](C)NC(=O)c1ccc(-c2ccccn2)cc1"
  Value units: "nM"
  Ki: 51
- Structure as smiles: "COC(=O)[C@H](Cc1cccc(C(=N)N)c1)[C@@H](C)NC(=O)c1ccc(-c2cc[n+]([O-])cc2)cc1"
  Value units: "nM"
  Ki: 301
- Structure as smiles: "COC(=O)[C@H](Cc1cccc(C(=N)N)c1)[C@@H](C)NC(=O)c1ccc(-c2ccc[n+](C)c2)cc1"
  Value units: "nM"
  Ki: 52

P = COC(=O)[C@H](Cc1cccc(C(=N)N)c1)[C@@H](C)NC(=O)c1ccc(-c2ccncc2)cc1
Q = COC(=O)[C@H](Cc1cccc(C(=N)N)c1)[C@@H](C)NC(=O)c1ccc(-c2cc[n+](C)cc2)cc1
From the recorded data, which exceeds the other in Ki: P or Q ? Write the label of whichever entry you select.
Q
